# Test system: Spodoptera litura
# EXPERIMENT_DESCRIPTION: Foliar spray test on Spodoptera litura on cabbage (Test Example 11)
# Type: in vivo
# STUDY_CONDITIONS: 96 h, fourth instar larvae of Spodoptera litura on cabbage, 500 ppm spray 20 ml/cup, after 4 days, read-out: controlling value
Below: a set of entries, each annotated with reported pest or weed control at 500 ppm.
READOUT_TYPE: pest or weed control at 500 ppm

>>> df
                                   molecule                     readout_type  readout_value
0  Cc1c(C(=O)NCC2CCOC2)noc1CCCc1ccc2ccccc2c1 (centres unmarked) [(290)]  pest or weed control at 500 ppm          ≥ 80%
1  O=C(NCC1CCOC1)c1cc(COCc2cc3ccccc3s2)on1 (centres unmarked) [(112)]  pest or weed control at 500 ppm          ≥ 80%
2  O=C(NCC1CCOCC1)c1cc(COCc2ccc3c(c2)OCO3)on1 [(106)]  pest or weed control at 500 ppm          ≥ 80%
3  O=C(NCC1CCOCC1)c1cc(COCc2cccc(Br)c2)on1 [(77)]  pest or weed control at 500 ppm          ≥ 80%
4  O=C(NCC1CCOC1)c1cc(COc2cccc(Br)c2)on1 (centres unmarked) [(196)]  pest or weed control at 500 ppm          ≥ 80%
